- experimental details: CD-monitored thermal denaturation (two-state unfolding fit)
- Format: physicochemical
- details: 20 μM peptide in 20 mM potassium phosphate, pH 7.0; CD at 229 nm
- Procedure: Spectra were acquired with an Aviv Instruments, Inc. Model 202 spectrophotometer. Peptide concentrations were determined spectrophotometrically as described in Gill & von Hippel (1989) Anal. Biochem. 182:319–326. […] As a model for the unfolded state of the peptides, the melting curve (linear) of an equimolar mixture of the trpzip1 half peptides SWTWEG[SEQ ID NO: 14] and NKWTWK [SEQ ID NO: 15] was measured. […]
Square brackets hold non-standard residues; d marks the D form. Ends that are not written are not given here.
property: Tm
Param answer (str): number followed by unit.

These recorded examples may help you get a feel for the data.
GEWTWDDATKTWTWTE (GEWTWDDATKTWTWTE-NH2) [trpzip4] : 70.0 ± 0.1 °C
GEWTWDDATKTWTVTE (GEWTWDDATKTWTVTE-NH2) [trpzip6] : 44.6 ± 0.48 °C
SWTWEpNKWTWK (SWTWE[dP]NKWTWK-NH2; N-terminus assumed; SMILES C[C@@H](O)[C@H](NC(=O)[C@H](Cc1c[nH]c2ccccc12)NC(=O)[C@H](CCCCN)NC(=O)[C@H](CC(N)=O)NC(=O)[C@H]1CCCN1C(=O)[C@H](CCC(=O)O)NC(=O)[C@H](Cc1c[nH]c2ccccc12)NC(=O)[C@@H](NC(=O)[C@H](Cc1c[nH]c2ccccc12)NC(=O)[C@@H](N)CO)[C@@H](C)O)C(=O)N[C@@H](Cc1c[nH]c2ccccc12)C(=O)N[C@@H](CCCCN)C(N)=O) [trpzip3] : 78.7 ± 0.2 °C

# map each substance to its Tm
1. GEWVWDDATKTWHWTE (GEWVWDDATKTWHWTE-NH2) [trpzip8]
2. SWTWENGKWTWK (SWTWENGKWTWK-NH2) [trpzip2]
3. GEWTYDDATKTFTWTE (GEWTYDDATKTFTWTE-NH2) [trpzip5]

Result:
79.1 ± 0.1 °C
71.9 ± 0.1 °C
42.7 ± 0.2 °C

* * *

- experimental details: CD-monitored thermal denaturation (two-state unfolding fit)
- Assay type: physicochemical
- details: ΔH at Tm; 20 μM peptide in 20 mM potassium phosphate, pH 7.0
Square brackets hold non-standard residues; d marks the D form. Ends that are not written are not given here.
property: ΔHm (kcal/mol)
Give bare numbers, in kcal/mol.

These recorded examples may help you get a feel for the data.
GEWHWDDATKTWVWTE (GEWHWDDATKTWVWTE-NH2) [trpzip7] : 25.03
GEWTYDDATKTFTWTE (GEWTYDDATKTFTWTE-NH2) [trpzip5] : 13.32
GEWVWDDATKTWVWTE (GEWVWDDATKTWVWTE-NH2) [trpzip9] : 26.69
SWTWEpNKWTWK (SWTWE[dP]NKWTWK-NH2; N-terminus assumed; SMILES C[C@@H](O)[C@H](NC(=O)[C@H](Cc1c[nH]c2ccccc12)NC(=O)[C@H](CCCCN)NC(=O)[C@H](CC(N)=O)NC(=O)[C@H]1CCCN1C(=O)[C@H](CCC(=O)O)NC(=O)[C@H](Cc1c[nH]c2ccccc12)NC(=O)[C@@H](NC(=O)[C@H](Cc1c[nH]c2ccccc12)NC(=O)[C@@H](N)CO)[C@@H](C)O)C(=O)N[C@@H](Cc1c[nH]c2ccccc12)C(=O)N[C@@H](CCCCN)C(N)=O) [trpzip3] : 13.02
GEWTWDDATKTWTVTE (GEWTWDDATKTWTVTE-NH2) [trpzip6] : 10.29

# map each substance to its ΔHm
1. SWTWEGNKWTWK (SWTWEGNKWTWK-NH2) [trpzip1]
2. SWTWENGKWTWK (SWTWENGKWTWK-NH2) [trpzip2]
3. GEWTWDDATKTWTWTE (GEWTWDDATKTWTWTE-NH2) [trpzip4]
4. GEWVWDDATKTWHWTE (GEWVWDDATKTWHWTE-NH2) [trpzip8]

Result:
10.79
16.77
21.86
25.98

* * *

- experimental details: CD-monitored thermal denaturation (two-state unfolding fit)
- Format: physicochemical
- details: 20 μM peptide in 20 mM potassium phosphate, pH 7.0; CD at 229 nm
Ends that are not written are not given here.
property: Tm (°C)
Answers are plain numbers, in °C.

# map each sequence to its Tm
1. GEWVWDDATKTWVWTE (GEWVWDDATKTWVWTE-NH2) [trpzip9]
2. GEWHWDDATKTWVWTE (GEWHWDDATKTWVWTE-NH2) [trpzip7]
3. SWTWEGNKWTWK (SWTWEGNKWTWK-NH2) [trpzip1]

Result:
1: 92.0; 2: 80.2; 3: 49.9

* * *

- experimental details: CD-monitored thermal denaturation (two-state unfolding fit)
- Format: physicochemical
- details: calculated from the fit parameters (ΔHm/Tm); 20 μM peptide, 20 mM potassium phosphate, pH 7.0
- Description: Spectra were acquired with an Aviv Instruments, Inc. Model 202 spectrophotometer. Peptide concentrations were determined spectrophotometrically as described in Gill & von Hippel (1989) Anal. Biochem. 182:319–326. […] As a model for the unfolded state of the peptides, the melting curve (linear) of an equimolar mixture of the trpzip1 half peptides SWTWEG[SEQ ID NO: 14] and NKWTWK [SEQ ID NO: 15] was measured. […]
Square brackets hold non-standard residues; d marks the D form. Ends that are not written are not given here.
property: ΔSm (cal mol^−1 K^−1)
Answers are plain numbers, in cal mol^−1 K^−1.

These recorded examples may help you get a feel for the data.
GEWVWDDATKTWHWTE (GEWVWDDATKTWHWTE-NH2) [trpzip8] : 73.8
GEWTWDDATKTWTWTE (GEWTWDDATKTWTWTE-NH2) [trpzip4] : 63.7
SWTWEpNKWTWK (SWTWE[dP]NKWTWK-NH2; N-terminus assumed; SMILES C[C@@H](O)[C@H](NC(=O)[C@H](Cc1c[nH]c2ccccc12)NC(=O)[C@H](CCCCN)NC(=O)[C@H](CC(N)=O)NC(=O)[C@H]1CCCN1C(=O)[C@H](CCC(=O)O)NC(=O)[C@H](Cc1c[nH]c2ccccc12)NC(=O)[C@@H](NC(=O)[C@H](Cc1c[nH]c2ccccc12)NC(=O)[C@@H](N)CO)[C@@H](C)O)C(=O)N[C@@H](Cc1c[nH]c2ccccc12)C(=O)N[C@@H](CCCCN)C(N)=O) [trpzip3] : 37.0
GEWTYDDATKTFTWTE (GEWTYDDATKTFTWTE-NH2) [trpzip5] : 42.2
GEWVWDDATKTWVWTE (GEWVWDDATKTWVWTE-NH2) [trpzip9] : 73.1
GEWTWDDATKTWTVTE (GEWTWDDATKTWTVTE-NH2) [trpzip6] : 32.4
SWTWEGNKWTWK (SWTWEGNKWTWK-NH2) [trpzip1] : 33.4
GEWHWDDATKTWVWTE (GEWHWDDATKTWVWTE-NH2) [trpzip7] : 70.8

# next substance below
Query: Identify measured ΔSm corresponding to SWTWENGKWTWK (SWTWENGKWTWK-NH2) [trpzip2]
Result: 48.6

* * *

- experimental details: CD-monitored thermal denaturation (two-state unfolding fit)
- Assay type: physicochemical
- details: 20 μM peptide in 20 mM potassium phosphate, pH 7.0
- Procedure: Spectra were acquired with an Aviv Instruments, Inc. Model 202 spectrophotometer. Peptide concentrations were determined spectrophotometrically as described in Gill & von Hippel (1989) Anal. Biochem. 182:319–326. […] As a model for the unfolded state of the peptides, the melting curve (linear) of an equimolar mixture of the trpzip1 half peptides SWTWEG[SEQ ID NO: 14] and NKWTWK [SEQ ID NO: 15] was measured. […]
Square brackets hold non-standard residues; d marks the D form. Ends that are not written are not given here.
Give measured ΔCp for each item. Keep answers brief.
One number for each entry, in cal mol^−1 K^−1.

These recorded examples may help you get a feel for the data.
SWTWENGKWTWK (SWTWENGKWTWK-NH2) [trpzip2] : 281
GEWHWDDATKTWVWTE (GEWHWDDATKTWVWTE-NH2) [trpzip7] : 418
GEWVWDDATKTWHWTE (GEWVWDDATKTWHWTE-NH2) [trpzip8] : 440
SWTWEGNKWTWK (SWTWEGNKWTWK-NH2) [trpzip1] : 231

# map each substance to its ΔCp
1. GEWTYDDATKTFTWTE (GEWTYDDATKTFTWTE-NH2) [trpzip5]
2. GEWTWDDATKTWTVTE (GEWTWDDATKTWTVTE-NH2) [trpzip6]
3. GEWTWDDATKTWTWTE (GEWTWDDATKTWTWTE-NH2) [trpzip4]

Result:
[325, 236, 380]

# map each substance to its ΔCp
1. GEWVWDDATKTWVWTE (GEWVWDDATKTWVWTE-NH2) [trpzip9]
2. SWTWEpNKWTWK (SWTWE[dP]NKWTWK-NH2; N-terminus assumed; SMILES C[C@@H](O)[C@H](NC(=O)[C@H](Cc1c[nH]c2ccccc12)NC(=O)[C@H](CCCCN)NC(=O)[C@H](CC(N)=O)NC(=O)[C@H]1CCCN1C(=O)[C@H](CCC(=O)O)NC(=O)[C@H](Cc1c[nH]c2ccccc12)NC(=O)[C@@H](NC(=O)[C@H](Cc1c[nH]c2ccccc12)NC(=O)[C@@H](N)CO)[C@@H](C)O)C(=O)N[C@@H](Cc1c[nH]c2ccccc12)C(=O)N[C@@H](CCCCN)C(N)=O) [trpzip3]

Result:
[402, 195]
